# System: MARIMO;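 further: after 48 h exposure read by CellTiter-Glo luminescence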
# Method Description: cell viability relative to vehicle control; higher = less cytotoxic
# Experimental Parameters: 10 µM; SRSF2 genotype: SRSF2 wt/wt
Endpoint Name: cell viability (%)
Number only, in %; omit the unit.

Here are 2 compounds together with their reported answers.
| Compound | Endpoint Unit | Result Value |
| --- | --- | --- |
| OCCOCCN1CCN(C(c2ccccc2)c2ccc(Cl)cc2)CC1 (stereo not drawn) [Hydroxyzine 2HCl] | % | 88.6 |
| O=c1cc(-c2ccc(O)c(O)c2O)oc2ccccc12 | % | 87.9 |

With those in mind, consider the next compound.
Given Cc1cc(C(O)=C2C(=O)C(=O)N(CCCN3CCOCC3)C2c2ccncc2)ccc1OCc1ccccc1 (stereo not drawn) , state its recorded cell viability.
92.6
